Kindly state OD450 for each of the entries shown.
# assayed-target: T1, Peptide 4: Biotin-AGGGGSGGGGSGGGGSAAA-Tyr-acid (N-terminal biotin; C-terminal acid)
# T1 construct: control peptide without PC
# T1 peptide: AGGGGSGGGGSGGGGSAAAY
# protocol-text: scFv ELISA
# Description: For ELISA analysis of scFv binding, 96-well polystyrene plates were coated with Peptide 1, 4, 5, 8 or 100 μL BSA (10 μg/mL) in PBS at 4° C. overnight. […] All plates were washed three times with PBS-Tween before 40 μL aliquots of PPE were added to assay plates along with 50 μL 10% BSA, and plates were incubated for 1 hour at room temperature. […] The amount of scFv bound to each well was quantitated from absorbance measurement at 450 nm (OD450).
The response must be a number in OD450 with no trailing unit.

Query :: Return reported OD450. Input binder: PcOxP_DB02_B06 (scFv, V domains shown, scFv in periplasmic extract) VH: EVQLLESGGGLVQPGGSLRLSCAASGFTFSDNYMEWVRQAPGKGLEWVAASRNKANDYTTEYADSVKGRFTISRDNSKNTLYLQMNSLRAEDTAVYYCARDYYGSSYWYFDVWGQGTLVTVSS VL: DIQMTQSPSSLSASVGDRVTITCTASESLYSSKHKVHYLAWYQQKPGKAPKLLIYGASNRYIGVPSRFSGSGSGTDFTLTISSLQPEDFATYYCTQFYSYPLTFGGGTKVEIK
Result :: 0.07

Query :: Note OD450 for the binder shown: PcOxP_DB03_C11 (scFv, V domains shown, scFv in periplasmic extract) VH: EVQLLESGGGLVQPGGSLRLSCAASGFDFSDFYMEWVRQAPGKGLEWVAASRNKANDYTTDYADSVKGRFTISRDNSKNTLYLQMNSLRAEDTAVYYCARDYFGSSYWYFDVWGQGTLVTVSS VL: DIQMTQSPSSLSASVGDRVTITCTASESLYSSKHKVHYLAWYQQKPGKAPKLLIYGASNRYQGVPSRFSGSGSGTDFTLTISSLQPEDFATYYCAQFYFYPLTFGGGTKVEIK
Result :: 0.05

Query :: Using the record for PcOxP_DB02_B10 (scFv, V domains shown, scFv in periplasmic extract) VH: EVQLLESGGGLVQPGGSLRLSCAASGFTESDFYMEWVRQAPGKGLEWVAASRNKANDYTTEYADSVKGRFTISRDNSKNTLYLQMNSLRAEDTAVYYCARDYYGSSYWYFDVWGQGTLVTVSS VL: DIQMTQSPSSLSASVGDRVTITCTASESLYSSKHKVHYLAWYQQKPGKAPKLLIYGASNRYIGVPSRFSGSGSGTDFTLTISSLQPEDFATYYCAQFYVYPLTFGGGTKVEIK , state its measured OD450.
Result :: 0.04
